Target: T1, IL-2Rβ (UniProt P14784 27-240, limits assumed, biotinylated (site not stated))
T1 construct: also called CD122; IL-2Rbeta
T1 sequence (looked up): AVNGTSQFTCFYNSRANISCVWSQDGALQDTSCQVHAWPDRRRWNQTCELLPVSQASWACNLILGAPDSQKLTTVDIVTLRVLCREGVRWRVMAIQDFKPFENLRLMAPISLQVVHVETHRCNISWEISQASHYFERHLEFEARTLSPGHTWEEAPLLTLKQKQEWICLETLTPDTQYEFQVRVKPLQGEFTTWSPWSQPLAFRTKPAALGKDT
Experiment: SPR Biacore T100, kinetic fit; biotinylated IL-2Rβ on chip
measure name: Kd (nM)
Response body: numeric value in nM, unit text excluded.

Reference set (3 entries):
binder | units text | Kd
in silico designed IL-2 variant SEQ ID NO: 10, MSA fusion protein (ligand, not shown: mouse serum albumin (MSA), fusion partner) APTSSSTKKTQLQLEHLLLDLQMILNMLNNYDNPKLTRLLTFKFYMPKKATSLKHLQCLEEELKPLEEALNQASKDQKKVRDVVSNINVFVLELKGSETTFMCEYADETATIIEFLNRWITFCQSIISTLT | nM | 105
in silico designed IL-2 variant SEQ ID NO: 13, MSA fusion protein (ligand, not shown: large carriers; small tags and cut ends) APTSSSTKKTQLQLEHLLLDLQMILNMLNNASNPSLTRMLTFKFYMPKKATELKHLQCLEEELKPLEEALNTAADDQDKIRDLISNINVIVLELKGSETTFMCEYADETATIIEFLNRWITFCQSIISTLT | nM | 174
in silico designed IL-2 variant SEQ ID NO: 4, MSA fusion protein (ligand, not shown: large carriers; small tags and cut ends) APTSSSTKKTQLQLEHLLLDLQMILNMLNNYDNPKLTRLLTFKFYMPKKATSLKHLQCLEEELKPLEEALNQAGDDPKTIRDLISNINVIVLELKGSETTFMCEYADETATIIEFLNRWITFCQSIISTLT | nM | 339

Now for the binder whose Kd we want.
Documented Kd of Super-2 (H9) IL-2 variant, expressed as MSA fusion protein (ligand, not shown: large carriers; small tags and cut ends, also called H9 super-2; MSA-H9-super-2) APTSSSTKKTQLQLEHLLLDLQMILNGINNYKNPKLTRMLTFKFYMPKKATELKHLQCLEEELKPLEEVLNLAQSKNFHFDPRDVVSNINVFVLELKGSETTFMCEYADETATIVEFLNRWITFCQSIISTLT : 2.1
